# TESTED_ON: T1, Pig serum albumin (pig, UniProt P08835 25-607)
# T1 construct: bought; immobilised on a CM5 chip by amine coupling; also called Pig SA
# METHOD_NOTES: SPR, SA on chip, VHH 300 nM, 25 C
METRIC_NAME: koff (s⁻¹)

[A] VHH moiety 19 (MC6.1C22-R102S) (VHH) VHH: EVQLLESGGGLVQPGGSLRLSCAASGRYIDETAVAWFRQAPGKEREFVAGIGGGVDITYYADSVKGRFTISRDNSKNTLYLQMNSLRPEDTAVYYCAARPGSPLITSKVADLYPYWGQGTLVTVSS
[B] VHH moiety 40 (MC6.1C95.43) (VHH) VHH: EVQLLESGGGLVQPGGSLRLSCAASGRYIDETAVAWFRQAPGKGREFVAGIGGGVDITYYADSVKGRFTISRDNSKNTLYLQMNSLRPEDTAVYYCGTRPGRPLITSKVADLYPYWGQGTLVTVSS
Enquiry: # argmax over koff for candidates A and B Use the label to indicate which entry you chose.
Return: A
(A: 0.014 s⁻¹, B: 0.0058 s⁻¹)
